- experimental.system: Fyn (UniProt P06241)
- Sequence (P06241 whole entry, looked up): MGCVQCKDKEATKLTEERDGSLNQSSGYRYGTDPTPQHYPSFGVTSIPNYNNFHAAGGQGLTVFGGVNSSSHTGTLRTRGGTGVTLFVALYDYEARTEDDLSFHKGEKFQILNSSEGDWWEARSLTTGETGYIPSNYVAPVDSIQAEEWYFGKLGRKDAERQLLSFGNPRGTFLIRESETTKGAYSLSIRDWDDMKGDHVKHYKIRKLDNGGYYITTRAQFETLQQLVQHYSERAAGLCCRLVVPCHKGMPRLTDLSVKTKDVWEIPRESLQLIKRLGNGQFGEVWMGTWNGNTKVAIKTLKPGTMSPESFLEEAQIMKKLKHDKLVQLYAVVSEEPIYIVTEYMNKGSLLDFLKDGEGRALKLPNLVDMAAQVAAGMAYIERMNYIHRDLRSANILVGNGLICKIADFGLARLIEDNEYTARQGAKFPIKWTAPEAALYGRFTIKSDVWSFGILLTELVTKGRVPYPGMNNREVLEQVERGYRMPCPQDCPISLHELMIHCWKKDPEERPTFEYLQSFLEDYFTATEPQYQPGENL
- assay.info: phosphorylation enrichment, bacterial display (enrichment ratio); higher = better substrate or ligand; peptides without Tyr show the background;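 note: 11-residue human phosphosite peptides and single-mutation variants displayed on the E. coli surface, counted by deep sequencing, each peptide's frequency after selection divided by its frequency in the unselected input library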;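 note: frequency after pTyr selection over input frequency; kinase dosed for 20-30% of maximal phosphorylation in three min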
quantity.measured: phosphorylation enrichment
Write no unit; give the number alone.

GGDGSYVSVPL [TNNI3K_Y425_S430L] :: 0.406
MAQDIYRASYY [ALK_Y1278_R1275Q] :: 1.62

## Task I'd like to know its phosphorylation enrichment. The sequence in question is ACCLLYHGDVV [TUBA4A_Y319_R320H]
## Result 0.507

## Task # iterate: HQNGMYRLHQD [SGSH_Y89_G90R]
## Result 0.42

## Task # iterate: GRQWNYVASML [KLHL4_Y552_S557L]
## Result 0.434

## Task # iterate: ALAAPYVLFPG [CEFIP_Y1332_YF]
## Result 0.739

## Task # iterate: STEPQYQPGEN [SRC_Y530]
## Result 0.383

## Task # iterate: MSSAGYRAAEG [COL6A3_Y543_T538M]
## Result 0.387

## Task # iterate: KVGPGYLGSGG [RET_Y826]
## Result 0.42

## Task # iterate: QSRSPYSSRHS [CDK13_Y415_R410Q]
## Result 0.715

## Task # iterate: EVEPTYVVLYD [ERCC4_Y577_R576T]
## Result 6

## Task # iterate: PTQLPYDHKWE [KIT_Y578]
## Result 0.491

## Task # iterate: KKCTRYIDCDL [ASPA_Y64]
## Result 0.389

## Task # iterate: ISDNACQYMLT [MYH7_Y162_Y162C]
## Result 0.546

## Task # iterate: LEEFQYIGELQ [MSH2_Y856_S860L]
## Result 0.718

## Task # iterate: CPFNLYAEQLS [HGD_Y40_YF]
## Result 0.642

## Task # iterate: PSAELYSNALP [PDGFRB_Y716]
## Result 1.66

## Task # iterate: HVKHNYECLVF [XRCC5_Y416_I412V_YF]
## Result 0.584

## Task # iterate: PLQSEYSSITT [ITGB4_Y1760]
## Result 1.58

## Task # iterate: CTTIHFNFMCN [TP53_Y234_Y234F_YF]
## Result 0.484

* * *

Each record here notes measured phosphorylation enrichment.
- experimental.system: Fyn (UniProt P06241)
- assay.info: phosphorylation enrichment, bacterial display (enrichment ratio); higher = better substrate or ligand; peptides without Tyr show the background
Write no unit; give the number alone.

Solved entries (count: 5):
YLQEIYNSNNQ [FGG_Y140] :: 1.59
DAHFTYSRYPW [LY75_Y888_D884A] :: 2.4
QRALLYEDTLF [UNC13D_Y56_A59T_YF] :: 1.49
PLTRSYIREKV [CYP2C8_Y243_A238P] :: 0.474
ADEDIYGVLPA [LYNtide_2014] :: 4.82

## Task I'd like to know its phosphorylation enrichment. The sequence in question is RHPYFFAPELL [ALB_Y174_Y174F]
## Result 0.601

## Task # iterate: ETEMLYGSARR [PRC1_Y464_P468R]
## Result 2.66

* * *

- Tested on: AncSZ
- assay.info: phosphorylation enrichment, bacterial display (enrichment ratio); higher = better substrate or ligand; peptides without Tyr show the background
Each record here notes measured phosphorylation enrichment.
Write no unit; give the number alone.

Solved entries (count: 5):
GYITSYREEEQ :: 1.29
TNDMRYPMKSE [TGDS_Y302] :: 0.675
IMFTSYFLTIL [TAS2R16_Y239_V235M] :: 1.34
WRPFGYPHRRR [BCS1L_Y181_R183H] :: 0.622
MDDPRYGVCPL [ZNF100_Y6_M8V] :: 1.15

Kindly consider the entry below.
## Task I'd like to know its phosphorylation enrichment. The sequence in question is KDGNGYISVAE [CALM3_Y100_A103V]
## Result 0.771

* * *

- Tested on: c-Abl (mouse)
- assay.info: phosphorylation enrichment, bacterial display (enrichment ratio); higher = better substrate or ligand; peptides without Tyr show the background
Kind request: treat 0.5 as inclusive, so phosphorylation enrichment at 0.5 or higher is criterion met, anything lower is criterion not met.

Solved cases below.
RVGNMYMRGLS [ABCG8_Y209_V210M] :: criterion not met
DRLAVCIDRVR [LMNA_Y45_Y45C] :: criterion met
LNRAGYCDALE [MTUS1_Y151_C148R] :: criterion met

## Task Reported phosphorylation enrichment reaches at least 0.5 for AKLKDYYIFNK [CCDC42_Y149] ?
## Result criterion met

## Task # iterate: VFAANYFKLLG [ROR2_Y645_D644N_YF]
## Result criterion met

## Task # iterate: RQSRNYLGGFA [SYK_Y47]
## Result criterion met

## Task # iterate: SHISGYATLRR [RAPH1_Y1226]
## Result criterion not met

## Task # iterate: LEFAKYGSLRG [RET_Y809_V804L_YF]
## Result criterion not met

## Task # iterate: MEFLPYGSLRD [JAK2_Y934_YF]
## Result criterion met

## Task # iterate: EKEKEYMLPLD [DNM2_Y563_K562E]
## Result criterion not met

## Task # iterate: EELLHYAIVTP [POC5_Y37]
## Result criterion met

## Task # iterate: RQNQEYEILMD [KRT39_Y379_L383M]
## Result criterion met

## Task # iterate: ALADKYHGGGG [HBB_Y146_H144D]
## Result criterion not met

## Task # iterate: CPPKVYELMIA [ABL2_Y515_R519I]
## Result criterion met

## Task # iterate: GRVFVYHLSEQ [ITGAE_Y551_R552H_YF]
## Result criterion not met

## Task # iterate: PVADRYDQSFE [MAPK14_Y323_P322R]
## Result criterion met

* * *

- experimental.system: FGFR1 (UniProt P11362)
- Sequence (P11362 whole entry, looked up): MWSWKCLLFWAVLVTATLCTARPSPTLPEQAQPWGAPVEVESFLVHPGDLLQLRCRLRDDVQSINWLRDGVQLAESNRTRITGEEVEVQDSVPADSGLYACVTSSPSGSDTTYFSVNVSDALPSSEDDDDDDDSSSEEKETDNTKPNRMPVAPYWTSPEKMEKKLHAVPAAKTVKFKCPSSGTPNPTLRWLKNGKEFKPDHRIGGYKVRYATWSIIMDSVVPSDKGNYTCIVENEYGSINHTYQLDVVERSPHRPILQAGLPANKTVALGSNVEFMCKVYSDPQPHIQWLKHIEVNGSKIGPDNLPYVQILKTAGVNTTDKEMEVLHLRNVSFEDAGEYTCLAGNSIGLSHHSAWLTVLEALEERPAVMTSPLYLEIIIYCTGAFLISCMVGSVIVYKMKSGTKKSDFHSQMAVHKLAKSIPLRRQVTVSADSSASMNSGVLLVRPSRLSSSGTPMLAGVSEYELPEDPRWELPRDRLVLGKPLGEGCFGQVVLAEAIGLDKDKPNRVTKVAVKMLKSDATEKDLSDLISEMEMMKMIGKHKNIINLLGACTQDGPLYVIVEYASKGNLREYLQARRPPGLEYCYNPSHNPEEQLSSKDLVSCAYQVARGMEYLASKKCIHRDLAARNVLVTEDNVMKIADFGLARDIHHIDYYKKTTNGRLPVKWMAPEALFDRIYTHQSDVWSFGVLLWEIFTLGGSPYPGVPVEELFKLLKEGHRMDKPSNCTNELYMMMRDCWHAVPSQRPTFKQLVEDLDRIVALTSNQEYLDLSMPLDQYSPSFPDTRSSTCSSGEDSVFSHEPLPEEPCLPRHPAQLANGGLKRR
- assay.info: phosphorylation enrichment, bacterial display (enrichment ratio); higher = better substrate or ligand; peptides without Tyr show the background
Each record here notes measured phosphorylation enrichment.
Write no unit; give the number alone.

Solved entries (count: 3):
EELLHYAIVTP [POC5_Y37] :: 1.33
SGDINYGQFAQ [PLCG1_Y210_T209N] :: 0.289
RLLVVYPSTQR [HBB_Y36_W38S] :: 1.07

Kindly consider the entry below.
## Task I'd like to know its phosphorylation enrichment. The sequence in question is SLFNGYVYSGV [NEIL3_Y71]
## Result 0.624

* * *

- experimental.system: Fyn (UniProt P06241)
- assay.info: phosphorylation enrichment, bacterial display (enrichment ratio); higher = better substrate or ligand; peptides without Tyr show the background
quantity.measured: phosphorylation enrichment

Solved entries (count: 8):
GLDGSYLLRFS [SH2D1A_Y29_D33Y_YF] :: 0.435
VMAALYGRLFE [BTD_Y536_T532M_YF] :: 6.68
NLPGGYSGSVK [MCPH1_Y606] :: 0.484
KMMGRYEMFAR [UPB1_Y362_T359M_YF] :: 0.368
LSSEMYVKSYT [F5_Y2149] :: 1.2
PVADRYDQSFE [MAPK14_Y323_P322R] :: 0.589
KSSDVYVSYDY [SORL1_Y136] :: 5.35
ARSHIYTLASC [MEFV_Y741_F743L] :: 2.13

Kindly consider the entry below.
## Task I'd like to know its phosphorylation enrichment. The sequence in question is DCPASYKKKSM [PDGFRA_Y768_R764C]
## Result 0.283

* * *

- experimental.system: MERTK (UniProt Q12866)
- Sequence (Q12866 whole entry, looked up): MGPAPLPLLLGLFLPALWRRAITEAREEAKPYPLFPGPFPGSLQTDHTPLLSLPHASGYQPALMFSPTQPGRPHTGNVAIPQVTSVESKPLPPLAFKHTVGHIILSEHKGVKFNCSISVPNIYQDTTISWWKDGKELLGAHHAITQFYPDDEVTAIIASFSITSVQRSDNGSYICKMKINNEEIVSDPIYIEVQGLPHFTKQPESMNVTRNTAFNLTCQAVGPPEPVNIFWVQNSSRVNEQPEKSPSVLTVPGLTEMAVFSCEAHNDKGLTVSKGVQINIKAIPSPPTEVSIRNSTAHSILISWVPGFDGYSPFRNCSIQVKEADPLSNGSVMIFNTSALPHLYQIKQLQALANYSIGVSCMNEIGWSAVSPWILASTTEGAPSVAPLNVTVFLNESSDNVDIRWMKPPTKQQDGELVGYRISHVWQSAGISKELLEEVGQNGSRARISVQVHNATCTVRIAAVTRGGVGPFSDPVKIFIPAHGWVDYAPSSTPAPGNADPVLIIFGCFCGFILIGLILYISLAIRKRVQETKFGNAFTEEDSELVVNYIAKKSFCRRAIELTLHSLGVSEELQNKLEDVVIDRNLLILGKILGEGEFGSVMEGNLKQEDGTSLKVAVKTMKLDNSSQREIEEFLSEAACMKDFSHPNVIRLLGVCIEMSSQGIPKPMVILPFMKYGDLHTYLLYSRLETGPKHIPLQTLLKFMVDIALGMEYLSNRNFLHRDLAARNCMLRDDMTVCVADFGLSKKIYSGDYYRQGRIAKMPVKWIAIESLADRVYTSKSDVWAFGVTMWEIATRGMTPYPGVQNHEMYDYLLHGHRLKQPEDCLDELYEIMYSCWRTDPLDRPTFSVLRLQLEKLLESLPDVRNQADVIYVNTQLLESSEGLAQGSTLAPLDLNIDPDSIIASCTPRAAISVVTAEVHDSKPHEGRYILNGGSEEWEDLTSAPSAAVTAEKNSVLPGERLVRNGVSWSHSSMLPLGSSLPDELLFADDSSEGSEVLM
- assay.info: phosphorylation enrichment, bacterial display (enrichment ratio); higher = better substrate or ligand; peptides without Tyr show the background
quantity.measured: phosphorylation enrichment
Write no unit; give the number alone.

RLLRGHDQSAF [HLA-C_Y137_Y137H_YF] :: 0.421
GLVFLYVEKNQ [PRELP_Y156_M157V] :: 0.337
CEHRGFLFLAI [TEK_Y897_Y897F_YF] :: 0.442
KVGPGYLGSGG [RET_Y826] :: 0.423
LENSTYQFICV [CRB1_Y760_R764C_YF] :: 2.49
RSDSSYRMSAT [NHS_Y1532] :: 0.68
TIEDSYRKQVV [KRAS_Y40] :: 0.369
SWSTSYSGFRF [NKAPL_Y91_YF] :: 0.535
SEDSEYFRAFE [CASQ2_Y178_K180R_YF] :: 0.476
TFEPNYGTVKQ [RAPGEF6_Y1447_YF] :: 0.442

## Task I'd like to know its phosphorylation enrichment. The sequence in question is FVGGFYGGCNE [CTSC_Y352_YF]
## Result 0.516

## Task # iterate: EQLLDYTRTVQ [INPP5E_Y439_R435Q]
## Result 0.475

## Task # iterate: NLNGKCNKPRA [ANGPTL3_Y417_Y417C]
## Result 0.44

## Task # iterate: FSKTQYNQVPR [CXADR_Y318_S323R_YF]
## Result 0.428

## Task # iterate: ISKKIYDPIHD [CTNNA3_Y614_T616P]
## Result 0.455

## Task # iterate: SVNCTYSPALN [TP53_Y126_T123N]
## Result 0.478

The origin of these recorded values is the supplement of paper PMC10065799.
